Source listed as patent US20080026996A1.

Target: T1, human VPAC1 receptor (human, UniProt P32241 31-457)
T1 sequence (looked up): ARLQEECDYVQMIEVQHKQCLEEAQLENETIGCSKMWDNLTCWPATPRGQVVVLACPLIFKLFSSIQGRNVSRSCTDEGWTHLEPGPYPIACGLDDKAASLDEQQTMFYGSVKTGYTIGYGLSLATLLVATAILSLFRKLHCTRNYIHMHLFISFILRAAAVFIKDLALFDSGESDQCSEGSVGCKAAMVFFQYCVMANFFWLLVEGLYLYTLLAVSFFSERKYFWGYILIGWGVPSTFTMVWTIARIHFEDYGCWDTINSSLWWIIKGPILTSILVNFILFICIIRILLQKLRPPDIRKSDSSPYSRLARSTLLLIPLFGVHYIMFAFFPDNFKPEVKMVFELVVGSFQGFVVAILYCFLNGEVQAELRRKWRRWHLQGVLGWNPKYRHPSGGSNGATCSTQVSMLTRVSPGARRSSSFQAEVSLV
Assay: cell-based or functional assay
Where no end group is shown, it is not given here. [ ]: non-standard residue; d: D form. hArg = N=C(N)NCCCC[C@H](N)C(=O)O
Simple rule here: EC50 cAMP, DiscoveRx less than 2 nM is satisfied, otherwise not satisfied.

>>> qualitative_label("HLDAVFTDNYTRLRKQVAAKKYLQSIKNKRYGGPSSGAPPPS [P46]")
"not satisfied"
>>> qualitative_label("HSDIVFTDNYTRLRKQVAAKKYLQSIKNKRYGGPSSGAPPPS (not fully specified) [P50]")
"not satisfied"
>>> qualitative_label("HSDLVFTDNYTRLRKQVAAKKYLQSIKNKRYGGPSSGAPPPS (not fully specified) [P55]")
"not satisfied"
>>> qualitative_label("HSDTVFTDNYTRLRKQVAAKKYLQSIKNKRYGGPSSGAPPPS [P54]")
"not satisfied"
>>> qualitative_label("HSDAVFTDNYTRLRRQVAAKKYLQSIKNKRYGGPSSGAPPPS [P72]")
"satisfied"
>>> qualitative_label("HSDAVFTDNYTRLRKQVAAKKYLQSIKN[hArg]RYGGPSSGAPPPS (ends and bridges not checked) [P24]")
"not satisfied"

State whether 2 nM exceeds EC50 cAMP, DiscoveRx recorded for H[dA]DAVFTDNYTRLRKQVAAKKYLQSIKNKRYGGPSSGAPPPS [P47] .
not satisfied

# TODO verify EC50 cAMP, DiscoveRx < 2 nM strictly for this binder: HSDAVTTDNYTRLRKQVAAKKYLQSIKNKRYGGPSSGAPPPS [P65]
not satisfied

Strictly below 2 nM in EC50 cAMP, DiscoveRx? HSDAVFTDNYTRLRKQVAAKKYLQSI[hArg]NKRYGGPSSGAPPPS (ends and bridges not checked) [P22]
satisfied

is_below(EC50 cAMP, DiscoveRx, 2 nM) for HSDAVFTDNYTRLRRQVAARRYLQSIRNRRYGGPSSGAPPPS (not fully specified) [P71] ?
satisfied

Quick check: does HSDAFFTDNYTRLRKQVAAKKYLQSIKNKRYGGPSSGAPPPS [P58] have EC50 cAMP, DiscoveRx under 2 nM?
not satisfied
